# NADPH fluorescence slope listing for each entry below
molecular target: Voltage-gated potassium channel subunit beta-2 (Rattus norvegicus) (UniProt P62483); assay: KvBeta positive modulators, primary screen, biochemical, NADPH fluorescence (AID 623); conditions: Recombinant KvBeta, NADPH fluorescence decrease slope, 10 min; at 10 µM; stronger effect = lower value;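 also: fluorescence intensity change per second fitted from 20 to 320 s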
Sequence (P62483 whole entry, looked up): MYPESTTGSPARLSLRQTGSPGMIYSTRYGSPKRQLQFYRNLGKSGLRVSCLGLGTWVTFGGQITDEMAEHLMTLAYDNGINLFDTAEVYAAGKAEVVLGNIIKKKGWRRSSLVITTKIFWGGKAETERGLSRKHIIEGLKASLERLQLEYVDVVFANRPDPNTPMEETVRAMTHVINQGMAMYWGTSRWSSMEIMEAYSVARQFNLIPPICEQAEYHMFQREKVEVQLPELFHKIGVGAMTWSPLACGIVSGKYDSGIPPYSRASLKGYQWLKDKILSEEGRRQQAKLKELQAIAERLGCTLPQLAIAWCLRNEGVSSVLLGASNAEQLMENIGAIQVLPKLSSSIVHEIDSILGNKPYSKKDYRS
// response body must contain only the number

Worked examples, 5 compounds total:
Entry COc1ccccc1C1/C(=C(/O)c2ccc(C)cc2)C(=O)C(=O)N1Cc1ccco1 (stereo not given) : reported NADPH fluorescence slope = ? -6.1e-05

Entry `c1ccc2c(c1)[nH]c1c(N3CCC4(CC3)OCCO4)ncnc12` : reported NADPH fluorescence slope = ? -3.4e-05

Entry `CCCCOc1ccc(-c2nnc(N)s2)cc1` : reported NADPH fluorescence slope = ? -6.4e-05

Entry `COc1ccc2c(c1)[nH]c1c(=O)n(CCN(C)C)cnc12` : reported NADPH fluorescence slope = ? -3.5e-05

Entry `CC1(C)Cc2c(C#N)c(N3CCOCC3)nc(-c3ccccc3)c2CO1` : reported NADPH fluorescence slope = ? -7.6e-05

***
Entry `CCOC(=O)c1[nH]c2cc3c(cc2c1NC(=O)CN1CCc2ccccc2C1)OCO3` : reported NADPH fluorescence slope = ? -1e-07

Entry `NC(=O)OCC(COC(N)=O)c1ccccc1` : reported NADPH fluorescence slope = ? -3.1e-05

Entry `Cc1cccc(OCC(=O)N2CCC(N3CCOCC3)CC2)c1` : reported NADPH fluorescence slope = ? -4.5e-05

Entry `Cc1ccc(/C=N/n2nnnc2N)o1` : reported NADPH fluorescence slope = ? -2.1e-05

Entry `CCOC(=O)C(NC=O)(NC(C)(C)C)C(=O)OCC` : reported NADPH fluorescence slope = ? -5.5e-05

Entry `OC(CCN1CCCCC1)(c1ccccc1)c1ccccc1` : reported NADPH fluorescence slope = ? -3.9e-05

Entry CCCCCCCCCCCCCCCC(O)C(N)CO (stereo not given) : reported NADPH fluorescence slope = ? -6.4e-05

Entry `Oc1ccc2ccccc2c1/C=N/n1cnnc1` : reported NADPH fluorescence slope = ? -1.6e-05

Entry `COc1ccc(C2=Nn3c(nnc3-c3ccccc3)SC2)cc1OC` : reported NADPH fluorescence slope = ? -0.000132

Entry `O=c1[nH]c(CN2CCCCC2)nc2c1C1(CCCC1)Cc1ccccc1-2` : reported NADPH fluorescence slope = ? -8.8e-06

----------
target: Voltage-gated potassium channel subunit beta-2 (Rattus norvegicus) (UniProt P62483); experiment: KvBeta enzyme negative modulators, primary screen, biochemical, NADPH fluorescence (AID 622); details: recombinant KvBeta, 4-cyanobenzaldehyde reduction, at 10 µM, stronger effect = higher value;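 also: slope of raw intensity against log time taken from 70 to 1610 s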
# fluorescence slope listing for each entry below
// response body must contain only the number

Worked examples, 4 compounds total:
Entry `CC(C)c1cc(NCCCN2CCOCC2)n2c(nc3ccccc32)c1C#N` : reported fluorescence slope = ? -0.342

Entry `CCn1cc(C(=O)O)c(=O)c2cc(F)c(N3CCNCC3)cc21` : reported fluorescence slope = ? -0.472

Entry `CC(C)Sc1nc(N2CCCC2)c2c(c1C#N)CC(C)(C)OC2` : reported fluorescence slope = ? -0.386

Entry `C=C(c1ccc(OCCO)cc1)c1ccc(OCCO)cc1` : reported fluorescence slope = ? -0.405

As a next step, examine the compound that follows.
Entry `CC(C)Cc1nc(NCCN2CCOCC2)c(C#N)c2c1COC(C)(C)C2` : reported fluorescence slope = ? -0.302

Provenance of the data: PubChem BioAssay
